- Test System: human NOX4 (Homo sapiens, UniProt Q9NPH5)
- Construct: The full-length human NOX4 (NM_016931.3) transcript was cloned
- Assay Explanation: Amplex Red activity assay (cellular H2O2 formation in hNOX4 T-REx-293 cells)
- Conditions: tet-induced 24 h, extracellular H2O2 by Amplex Red, 60 min 25° C., geometric mean if determined several times
pIC50: −log10 of the molar value.
Measured Property: pIC50

[[record]]
compound = "CN(c1nc2cc(NC(=O)c3ccc4c(c3)CCO4)ccc2s1)C1COC1 [Example 103]"
measured_property = "pIC50"
test_value = 5.49


P. O=C(Nc1ccc2oc(N3CCC(O)CC3)nc2c1)c1ccc2c(c1)CCO2 [Example 48]
Q. O=C(Nc1ccc2oc(N3CCC34CCOC4)nc2c1)c1ccc2c(c1)OCCO2 (stereo not drawn) [Example 162]
R. CCN(CC)c1nc2cc(NC(=O)c3ccc4c(c3)CCCO4)ccc2o1 [Example 157]
S. CN1CCOc2ccc(C(=O)Nc3ccc4oc(N5CC(O)C5)nc4c3)cc21 [Example 177]
## Task Order the 4 compounds from highest to lowest pIC50. Please express your ranking as an ordered list of the labels.
## Result P, Q, R, S
(P: 6.35, Q: 6.02, R: 5.69, S: 5.16)

====

- Test System: human NOX4 (Homo sapiens, UniProt Q9NPH5)
- Construct: The full-length human NOX4 (NM_016931.3) transcript was cloned
- Sequence (Q9NPH5 1-578): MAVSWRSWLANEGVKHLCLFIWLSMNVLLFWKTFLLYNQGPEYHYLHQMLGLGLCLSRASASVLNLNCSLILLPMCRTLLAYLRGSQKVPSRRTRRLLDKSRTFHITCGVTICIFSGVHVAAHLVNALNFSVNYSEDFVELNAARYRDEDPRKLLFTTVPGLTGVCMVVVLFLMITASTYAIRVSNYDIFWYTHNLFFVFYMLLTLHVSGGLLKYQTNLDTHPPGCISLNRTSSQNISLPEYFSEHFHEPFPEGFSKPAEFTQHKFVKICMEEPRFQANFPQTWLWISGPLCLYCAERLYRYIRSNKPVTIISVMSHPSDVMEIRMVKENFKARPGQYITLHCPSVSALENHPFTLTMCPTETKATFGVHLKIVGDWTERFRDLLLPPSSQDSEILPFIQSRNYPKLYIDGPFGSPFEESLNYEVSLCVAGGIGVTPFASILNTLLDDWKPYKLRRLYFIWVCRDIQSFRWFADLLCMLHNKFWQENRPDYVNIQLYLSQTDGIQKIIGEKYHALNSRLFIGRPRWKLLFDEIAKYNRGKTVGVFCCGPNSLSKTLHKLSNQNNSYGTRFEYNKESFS
- Sequence (P13498 1-195 partner): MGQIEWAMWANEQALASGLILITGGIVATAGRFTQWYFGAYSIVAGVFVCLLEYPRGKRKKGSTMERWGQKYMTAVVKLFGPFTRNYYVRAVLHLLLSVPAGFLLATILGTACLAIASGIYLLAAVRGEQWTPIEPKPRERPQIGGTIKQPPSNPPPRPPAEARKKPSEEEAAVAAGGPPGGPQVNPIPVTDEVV
- Assay Explanation: Amplex Red activity assay (cellular H2O2 formation in hNOX4 T-REx-293 cells)
- Conditions: tet-induced 24 h, extracellular H2O2 by Amplex Red, 60 min 25° C., geometric mean if determined several times
- Description: The nucleotide sequence and the amino acid sequence for the human NOX4 (Entrez Gene ID 50507) is known in the art and are published. The potency and efficacy of the compounds of Formula (I) are assessed for their potential to inhibit the formation of ROS in a cellular assay. […] Cellular H2O2 formation was measured using the Amplex Red reagent. […] Fluorescence was measured for each well and the fluorescence at 600 nm wavelength was compared to the fluorescence of the vehicle in place of compound. […]
Measured Property: IC50 (nM)

Example results:
[[record]]
molecule = "CN1CCOc2ccc(C(=O)Nc3ccc4oc(N5CCC56CCOC6)nc4c3)cc21 (centres unmarked)"
test_value = 2440

[[record]]
molecule = "O=C(Nc1ccc2oc(N3CCC[C@H](O)C3)nc2c1)c1ccc2c(c1)CCO2"
test_value = 541

[[record]]
molecule = "CCOCC1CCCN1c1nc2cc(NC(=O)c3ccc4c(c3)CCO4)ccc2s1 (centres unmarked)"
test_value = 9510

[[record]]
molecule = "O=C(Nc1ccc2oc(N3CCC3c3ccccc3)nc2c1)c1ccc2c(c1)CCO2 (racemic)"
test_value = 702

[[record]]
molecule = "O=C(Nc1ccc2oc(N3CCC34CCOC4)nc2c1)c1ccc2c(c1)CCO2 (centres unmarked)"
test_value = 336

[[record]]
molecule = "CN1CCN(c2nc3cc(C(=O)Nc4ccc5c(c4)OCCO5)ccc3s2)CC1"
test_value = 21200

[[record]]
molecule = "O=C(Nc1ccc2oc(N3CCCC(F)(F)C3)nc2c1)c1ccc2c(c1)OCO2"
test_value = 991

[[record]]
molecule = "O=C(Nc1ccc2oc(N3CCS(=O)(=O)CC3)nc2c1)c1ccc2c(c1)CCCO2"
test_value = 812


A. O=C(Nc1ccc2sc(N3CCS(=O)(=O)CC3)nc2c1)c1ccc2c(c1)CCO2
B. O=C(Nc1ccc2oc(N3CCOCC3)nc2c1)c1ccc2c(c1)CCCO2
C. CC(C)OC1CN(c2nc3cc(NC(=O)c4ccc5c(c4)CCO5)ccc3o2)C1
## Task rank_up(items): orders items by reported IC50 in ascending numerical order. Hello, could you send the labels back in the order asked? Thank you.
## Result B, C, A
(B: 756 nM, C: 1140 nM, A: 2460 nM)

====

- Test System: human NOX4 (Homo sapiens, UniProt Q9NPH5)
- Construct: The full-length human NOX4 (NM_016931.3) transcript was cloned
- Assay Explanation: Amplex Red activity assay (cellular H2O2 formation in hNOX4 T-REx-293 cells)
- Conditions: tet-induced 24 h, extracellular H2O2 by Amplex Red, 60 min 25° C., geometric mean if determined several times
- Method: The nucleotide sequence and the amino acid sequence for the human NOX4 (Entrez Gene ID 50507) is known in the art and are published. The potency and efficacy of the compounds of Formula (I) are assessed for their potential to inhibit the formation of ROS in a cellular assay. […] Cellular H2O2 formation was measured using the Amplex Red reagent. […] Fluorescence was measured for each well and the fluorescence at 600 nm wavelength was compared to the fluorescence of the vehicle in place of compound. […]
Measured Property: IC50 (nM)

Example entries begin here.
[[record]]
molecule = "O=C(Nc1ccc2sc(N3CCC[C@H](O)C3)nc2c1)c1ccc2c(c1)CCO2"
test_value = 2940

[[record]]
molecule = "O=C(Nc1ccc2oc(N3CCCC4(COC4)C3)nc2c1)c1ccc2c(c1)OCCO2"
test_value = 792

[[record]]
molecule = "O=C(Nc1ccc2oc(N3CCC34CCOC4)nc2c1)c1ccc2c(c1)CCCO2 (stereo not drawn)"
test_value = 1540

[[record]]
molecule = "O=C(Nc1ccc2oc(N3CC4(CCCOC4)C3)nc2c1)c1ccc2c(c1)CCO2"
test_value = 1470


a. O=C(Nc1ccc2sc(N3CCC(F)(F)C3)nc2c1)c1ccc2c(c1)CCO2
b. O=C(Nc1ccc2oc(N3CCCC4(COC4)C3)nc2c1)c1ccc2c(c1)OCO2
## Task Which entry shows the lesser value of IC50 here, a or b ? Response format: the label of the selected entry.
## Result b
(b: 614 nM, a: 3660 nM)

====

- Test System: human NOX4 (Homo sapiens, UniProt Q9NPH5)
- Construct: The full-length human NOX4 (NM_016931.3) transcript was cloned
- Assay Explanation: Amplex Red activity assay (cellular H2O2 formation in hNOX4 T-REx-293 cells)
- Conditions: tet-induced 24 h, extracellular H2O2 by Amplex Red, 60 min 25° C., geometric mean if determined several times
pIC50: −log10 of the molar value.
Measured Property: pIC50

[[record]]
molecule = "CN(C)CC1CCN(c2nc3cc(NC(=O)c4ccc5c(c4)CCO5)ccc3o2)C1 (stereo not shown) [Example 60]"
test_system = "human NOX4 (Homo sapiens, UniProt Q9NPH5)"
test_value = 5.78


1. O=C(Nc1ccc2oc(N3CC4(CCO4)C3)nc2c1)c1ccc2c(c1)CCO2 [Example 21]
2. CC1(O)CN(c2nc3cc(NC(=O)c4ccc5c(c4)CCO5)ccc3s2)C1 [Example 96]
## Task Given 1 and given 2 , which shows the smaller recorded pIC50? Pick one; state its label.
## Result 2
(2: 5.57, 1: 5.79)

a. CCN(CC)c1nc2cc(NC(=O)c3ccc4c(c3)CCO4)ccc2s1 [Example 85]
b. CN1CCOc2ccc(C(=O)Nc3ccc4oc(N5CCC6(CC5)COC6)nc4c3)cc21 [Example 190]
## Task Parameter metric = pIC50. Return the lower-valued option from a and b . Field: selected label. Fill in the label of the entry you choose.
## Result b
(b: 5.45, a: 5.78)

1. O=C(Nc1ccc2oc(N3CC4(CCS4(=O)=O)C3)nc2c1)c1ccc2c(c1)CCO2 [Example 72]
2. O=C(Nc1ccc2sc(N3CCN(C4COC4)CC3)nc2c1)c1ccc2c(c1)CCO2 [Example 102]
## Task Given the two records 1 and 2 , choose the one whose pIC50 value is lower. Answer by quoting the chosen item's label.
## Result 2
